meta.source: patent US20230348616A1

- Tested system: 5A
- Experiment: flow cytometry on peptide-pulsed T2 cells, scFv 100 nM
Documented standardized gMFI across a set of binders
// no unit string in output, number only

NYA-1154 (scFv) scFv: GEVQLVESGGGVVQPGRSLTPSCSASGFSIRSYDMHWVRQAPGKGLEWVATISYDGSQKYFADSVKGRFTIFRDESENMVYLQMSGLRVEDTAVYHCARGSSNHYEAFDIWGQGTMVTVSSGGGGSGGGGSGGGGSQSVLTQPPSVSAAPGQKVTISCSGSSSNIGNNYVSWYQRLPGTAPKLLIYDNNKRPSGIPDRFSGSKSGTSATLGITGLQTGDEADYYCGAWDSSLSAPWVFGGGTKVTVLGAAAGAGGDYKDDDDKGAAAHHHHHH: 1.12

Here's the next entry for you.
I am curious: what standardized gMFI value has been reported for NYA-2047 (scFv) scFv: GQVQLVESGGGVVQPGRSLRLSCAASGFSIRSYDMHWVRQAPGKGLEWVATISYDGSQKYYADSVKGRFTISRDNSKNTLYLQMSSLRAEDTAVYHCARGSSGHYEAFDIWGQGTLVTVSSGGGGSGGGGSGGGGSQSVLTQPPSVSAAPGQKVTISCSGSSSNIGNWYVSWYQQLPGTAPKLLIYDNNKRPSGIPDRFSGSKSGTSATLGITGLQTGDEADYYCGTWDSSLSAPWVFGGGTKVTVLGAAAGAGGDYKDDDDKGAAAHHHHHH ? 1.03
